// data source = paper PMC3958920

- Subject Of Test: the molecule itself
- Assay Text: SEC
Please go through the items and note down their stoichiometry N.
// return just the number, without any unit appended

Provide stoichiometry N value for the following protein: AbLhpH, trans-3-hydroxy-L-proline dehydratase of Azospirillum brasilense (enzyme, UniProt V5YXI5 1-335, looked up) MKITRSLSTVEVHTGGEAFRIVTSGLPRAPGDTIVQRRAWLKENADEIRRALMFEPRGHADMYGGYLTEPVSPNADFGVIFVHNEGYSDHCGHGVIALSTAAVELGWVQRTVPETRVGIDAPCGFIEAFVKWDGEHAGPVRFVNVPSFIWQRDVSVETPSFGTVTGDIAYGGAFYFYVDGAPFDLPVREAAVEKLIRFGAEVKAAANAKYPVVHPEIPEINHIYGTIIANAPRHPGSTQANCCVFADREVDRSPTGSGTGGRVAQLYQRGLLAAGDTLVNESIVGTVFKGRVLRETTVGDIPAVIPEVEGSAHICGFANWIVDERDPLTYGFLVR 2

Provide stoichiometry N value for the following protein: CpLhpH, trans-3-hydroxy-L-proline dehydratase of Colwellia psychrerythraea 34H (enzyme, UniProt Q485S0 1-355, looked up) MTKNIAQAAVKFEQWQPKIEQESYLTINSLECHTGGEPLRIITSGFPVLKGNTILAKANDCKQNYDQLRRALMFEPRGHADMYGAIITDAERDDSHFGAVFIHNEGYSSMCGHAVIALTKTAVESGVVARTGDVTQVVIDVPCGQIYAMAYSHNNVVKHVSFQCVPSFVYAKDQQVEVDGIGMVQFDIAYGGAFYAYVQASSLGLSLVPEQQEKLIAYGRKIKQAIIPQFEINHPTTAELSFLYGVIFIDDSPNQDVHSRNVCIFADGELDRSPTGSGVSGRIALHHAKQQIVLNETITIESILASSFSVRAIETVCFAGFDAVIPEVTGDAYVCGKGQWFINAEDPLKYGFLLR 2

Provide stoichiometry N value for the following protein: PaLhpD, Pyr2C/Pip2C reductase of Pseudomonas aeruginosa (enzyme, Pseudomonas aeruginosa PAO1, UniProt Q9I492 1-334, looked up) MIRMTLDEVRELAVRILRRHAFSEAHVQAVADTLVAGERDECASHGIWRLLGCIATLKAGKVSADAEPELHDIAPGLLRVDAHGGFSQCAFRLGLPHLLEKARSQGIAAMAVNRCVHFSALWVEVEALTEAGLVALATTPSHAWVAPAGGRKPIFGTNPIAFGWPRPDGPPFVFDFATSAVARGEIQLHERAGKPIPLGWGVDEQGEPTTDASAALRGAMLTFGGHKGSALAAMVELLAGPLIGDLTSAESLAYDEGSRSSPYGGELLIAIDPRRMLGASAEEHLARAETLFEGIVEQGARLPSQRRFEARERSARDGVTIPEALHRELLALLE 2
